The reported measurements were obtained from patent US8785499B2.

biological target: ecNadD (Escherichia coli (strain K12)); assay: biochemical; assay type: biochemical
resultType: […]. coli (%)

chemicalStructure	observedMeasurement
NS(=O)(=O)c1ccc(NC(=O)CSc2ncn(-c3ccccc3)n2)cc1	0
O=C(O)CCC(=O)NCc1ccc(C(=O)O)cc1	0
NS(=O)(=O)c1ccc(N/C=C/C(=O)c2ccc(Cl)s2)cc1	24
NS(=O)(=O)c1ccc(Nc2nc(-c3ccc(O)c(O)c3)cs2)cc1	32
COc1cc(Br)cc(/C=C2/SC(=S)NC2=O)c1O	20

* * *

molecular target: ecNadD (Escherichia coli (strain K12), UniProt P0A752); assay: biochemical; format: biochemical
resultType: […]. coli

chemicalStructure	tgt	observedMeasurement
COc1ccc(-c2noc(COc3ccc(Cl)cc3Cl)n2)cc1	ecNadD (Escherichia coli (strain K12), UniProt P0A752)	0%
Cc1ccc([N+](=O)[O-])cc1NS(=O)(=O)c1ccc(F)cc1	ecNadD (Escherichia coli (strain K12), UniProt P0A752)	0%
Nc1nc(-c2cc([N+](=O)[O-])cc([N+](=O)[O-])c2)n[nH]1	ecNadD (Escherichia coli (strain K12), UniProt P0A752)	0%
COc1cc(OC)cc(-c2cn[nH]c2N)c1	ecNadD (Escherichia coli (strain K12), UniProt P0A752)	10%
N=C(N)N/N=C/c1ccc([N+](=O)[O-])cc1	ecNadD (Escherichia coli (strain K12), UniProt P0A752)	12%
